# Tested target: Aurora kinase B (Homo sapiens)
# Sequence (Q96GD4 whole entry): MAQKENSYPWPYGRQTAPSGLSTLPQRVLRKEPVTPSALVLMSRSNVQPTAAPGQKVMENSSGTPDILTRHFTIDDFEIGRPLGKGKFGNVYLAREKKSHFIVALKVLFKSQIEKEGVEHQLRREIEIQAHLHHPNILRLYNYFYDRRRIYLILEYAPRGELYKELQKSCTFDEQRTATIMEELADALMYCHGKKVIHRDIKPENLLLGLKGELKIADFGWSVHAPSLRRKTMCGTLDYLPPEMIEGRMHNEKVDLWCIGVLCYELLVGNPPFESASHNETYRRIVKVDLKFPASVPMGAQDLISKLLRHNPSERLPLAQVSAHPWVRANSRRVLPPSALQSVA
# Assay remarks: Inhibition of recombinant full length human AURORA-B using AKRRRLSSLRA as substrate incubated for 40 mins in presence of [gamma-33P]ATP and 10 uM ATP by radiometric scintillation counting analysis

Smiles code: CN(C)c1ccc(C(=O)Nc2cccc(NC(=O)COc3ccc4c(=O)ccoc4c3)c2)cc1
IC50: 1240 nM

###

# Tested target: G protein-coupled receptor kinase 3 (Homo sapiens)
# Sequence (P35626 whole entry): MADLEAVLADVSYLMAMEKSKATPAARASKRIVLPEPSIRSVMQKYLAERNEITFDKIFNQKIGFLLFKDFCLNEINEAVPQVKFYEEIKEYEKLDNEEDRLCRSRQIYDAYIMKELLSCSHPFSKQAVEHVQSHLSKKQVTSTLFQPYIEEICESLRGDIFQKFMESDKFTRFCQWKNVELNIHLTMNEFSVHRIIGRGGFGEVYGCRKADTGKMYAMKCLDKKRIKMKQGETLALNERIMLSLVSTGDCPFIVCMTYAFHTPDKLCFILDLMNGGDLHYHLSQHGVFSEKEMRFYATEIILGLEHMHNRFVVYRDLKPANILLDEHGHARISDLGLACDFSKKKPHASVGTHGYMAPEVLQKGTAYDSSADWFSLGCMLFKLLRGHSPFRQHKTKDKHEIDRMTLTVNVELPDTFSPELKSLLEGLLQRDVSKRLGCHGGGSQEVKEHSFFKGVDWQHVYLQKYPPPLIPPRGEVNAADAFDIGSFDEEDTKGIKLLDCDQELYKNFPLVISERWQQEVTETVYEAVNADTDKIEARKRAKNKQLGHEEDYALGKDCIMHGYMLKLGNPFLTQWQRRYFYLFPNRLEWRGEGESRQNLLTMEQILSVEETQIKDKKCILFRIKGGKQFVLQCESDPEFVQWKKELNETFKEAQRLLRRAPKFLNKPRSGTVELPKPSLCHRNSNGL
# Assay remarks: Inhibition of recombinant full length human GRK3 using casein as substrate after 40 mins in presence of [gamma-33ATP] by radiometric scintillation counting analysis

Smiles code: CN(C)c1ccc(C(=O)Nc2cccc(NC(=O)COc3ccc4c(=O)ccoc4c3)c2)cc1
IC50: > 10 µM
